# credit: the supplement of paper PMC4237247

// values below are reported maximal percent
# Test system: HeLa
# protocol: maximal percent of cells arrested in mitosis within titration; higher = stronger mitotic arrest
# conditionSet: 20 h

smi | readoutUnits | maximal percent
CC(=O)Nc1ccc(Nc2nc(-c3c(C)nc4ccccn34)cs2)cc1 | % | 65.3
O=c1[nH]c(/C=C/c2ccccc2)nc2ccccc12 | % | 61
COC(=O)Nc1nc2cc(Sc3ccccc3)ccc2[nH]1 | % | 62.5
COc1cc(-c2onc3ccc(Cl)cc23)cc(OC)c1OC | % | 54.8
CC(=O)O[C@H]1C(=O)[C@@]2(C)[C@H]([C@H](OC(=O)c3ccccc3)[C@]3(O)C[C@H](OC(=O)[C@H](O)[C@@H](NC(=O)c4ccccc4)c4ccccc4)C(C)=C1C3(C)C)[C@]1(OC(C)=O)CO[C@@H]1C[C@@H]2O | % | 74
O=C(CSc1nc2ccc([N+](=O)[O-])cc2s1)c1ccc(Cl)cc1 | % | 61.7
